Test: Aqueous solubility of the compound […] measured after 72 hrs in shaking by HPLC analysis
Format: physicochemical
value.kind: solubility thermodynamic at 72 h (µg/mL)

Some solved entries appear below for comparison.
>  <compound>
O=C(Oc1ccc2[nH]c3c(c2c1)CCN1C(=O)c2cc(F)cc(F)c2N(c2cccc(F)c2)C31)N1CCNCC1 (configuration not stated)

>  <solubility thermodynamic at 72 h / µg/mL>
1.5

$$$$
>  <compound>
COCC(=O)Oc1ccc2[nH]c3c(c2c1)CCN1C(=O)c2cc(F)cc(F)c2N(c2cccc(F)c2)C31 (configuration not stated)

>  <solubility thermodynamic at 72 h / µg/mL>
3

$$$$
>  <compound>
O=C1c2cc(F)cc(F)c2N(c2cccc(F)c2)C2c3[nH]c4ccc(OCCN5CCCCC5)cc4c3CCN12 (configuration not stated)

>  <solubility thermodynamic at 72 h / µg/mL>
34.3

$$$$
>  <compound>
CCN(CC)C(=O)Oc1ccc2[nH]c3c(c2c1)CCN1C(=O)c2cc(F)cc(F)c2N(c2cccc(F)c2)C31 (configuration not stated)

>  <solubility thermodynamic at 72 h / µg/mL>
5.5

$$$$
>  <compound>
COCCCOc1ccc2[nH]c3c(c2c1)CCN1C(=O)c2cc(F)cc(F)c2N(c2cccc(F)c2)C31 (configuration not stated)

>  <solubility thermodynamic at 72 h / µg/mL>
71.4

$$$$

A: O=C(O)COc1ccc2[nH]c3c(c2c1)CCN1C(=O)c2cc(F)cc(F)c2N(c2cccc(F)c2)C31 (configuration not stated)
B: O=C(CO)Oc1ccc2[nH]c3c(c2c1)CCN1C(=O)c2cc(F)cc(F)c2N(c2cccc(F)c2)C31 (configuration not stated)
C: O=C1c2cc(F)cc(F)c2N(c2cccc(F)c2)C2c3[nH]c4ccc(O)cc4c3CCN12 (configuration not stated)
D: CC(C)(O)COc1ccc2[nH]c3c(c2c1)CCN1C(=O)c2cc(F)cc(F)c2N(c2cccc(F)c2)C31 (configuration not stated)
E: O=C1c2cc(F)cc(F)c2N(c2cccc(F)c2)C2c3[nH]c4ccc(OCCO)cc4c3CCN12 (configuration not stated)
**Query** Rank the 5 compounds: largest solubility thermodynamic at 72 h first, smallest last. Reply with the item labels sorted in the order that was asked for.
**Result** A, E, D, C, B
(A: 72.5 µg/mL, E: 9.5 µg/mL, D: 2.5 µg/mL, C: 1 µg/mL, B: 0.7 µg/mL)

1: CN(C)CCOc1ccc2[nH]c3c(c2c1)CCN1C(=O)c2cc(F)cc(F)c2N(c2cccc(F)c2)C31 (configuration not stated)
2: CC(=O)Oc1ccc2[nH]c3c(c2c1)CCN1C(=O)c2cc(F)cc(F)c2N(c2cccc(F)c2)C31 (configuration not stated)
**Query** Looking only at measured solubility thermodynamic at 72 h, which entry is lower, 1 or 2 ? # respond with the chosen item's label
**Result** 2

I: O=C1c2cc(F)cc(F)c2N(c2cccc(F)c2)C2c3[nH]c4ccc(OCCN5CCNCC5)cc4c3CCN12 (configuration not stated)
II: O=C(O)CCC(=O)Oc1ccc2[nH]c3c(c2c1)CCN1C(=O)c2cc(F)cc(F)c2N(c2cccc(F)c2)C31 (configuration not stated)
III: O=C(CCN1CCCC1)Oc1ccc2[nH]c3c(c2c1)CCN1C(=O)c2cc(F)cc(F)c2N(c2cccc(F)c2)C31 (configuration not stated)
**Query** Order the records so the highest solubility thermodynamic at 72 h appears first and the lowest last. Your reply should list the labels following the order given in the request.
**Result** I, III, II
(I: 50.5 µg/mL, III: 10.1 µg/mL, II: 6.1 µg/mL)
